- Test system: aggregated Aβ(1-42) peptides (Homo sapiens, UniProt P05067)
- Construct: preaggregated Aβ(1-42) peptides
- Sequence (P05067 672-713 limits assumed): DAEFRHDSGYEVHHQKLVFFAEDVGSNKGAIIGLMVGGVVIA
- Assay overview: Fluorescence of probes 27-31, 33 before and after mixing with aggregated Aβ42
- Type: binding
- Condition label: 4 μM probe, 5 μM aggregated Aβ(1-42)
- Protocol: Aggregated Aβ peptide was prepared by dissolving Aβ(1-42) in PBS pH 7.4 to a final concentration of 100 μM. This solution was magnetically stirred at 1200 rpm for 3 days at room temperature. The 100 μM Aβ(1-42) stock solution in PBS was aliquoted and frozen at −10° C. for up to 4 weeks without noticeable change in its property. […] The solution was transferred to a […] cuvette and the fluorescent measured. FIGS. 9A-F show fluorescence excitation spectra of Cmpds 27-31 and 33, respectively. […]
Property name: Fold increase (emission intensity after binding) (fold)
API: value field is a number in fold; no unit string.

Molecule	Test system	Reported measurement
COCCOCCOCCOC(=O)/C(C#N)=C/c1ccc2cc(N3CCN(C)CC3)ccc2c1	aggregated Aβ(1-42) peptides (Homo sapiens, UniProt P05067)	4.9
COCCOCCOCCOC(=O)/C(C#N)=C/c1ccc2cc(N3CCOCC3)ccc2c1	aggregated Aβ(1-42) peptides (Homo sapiens, UniProt P05067)	5.1
COCCOCCOCCOC(=O)/C(C#N)=C/c1ccc2cc(NCCN3CCOCC3)ccc2c1	aggregated Aβ(1-42) peptides (Homo sapiens, UniProt P05067)	2.9

Data request: Using aggregated Aβ(1-42) peptides (Homo sapiens, UniProt P05067) as the test system, report measured Fold increase (emission intensity after binding) of N#C/C(=C\c1ccc2cc(N3CCCCC3)ccc2c1)C(=O)OCC(O)CO (stereo not shown) .
Data returned: 7.2
